These measurements were taken from patent US20150353495A1.

biological target: JAK3 (Homo sapiens, UniProt P52333); construct: 5 μl of catalytic domain recombinant Kinase enzyme+Tyr peptide substrate (Invitrogen, CA); assay: Z'-LYTE kinase assay JAK3
Sequence (P52333 822-1111 limits assumed): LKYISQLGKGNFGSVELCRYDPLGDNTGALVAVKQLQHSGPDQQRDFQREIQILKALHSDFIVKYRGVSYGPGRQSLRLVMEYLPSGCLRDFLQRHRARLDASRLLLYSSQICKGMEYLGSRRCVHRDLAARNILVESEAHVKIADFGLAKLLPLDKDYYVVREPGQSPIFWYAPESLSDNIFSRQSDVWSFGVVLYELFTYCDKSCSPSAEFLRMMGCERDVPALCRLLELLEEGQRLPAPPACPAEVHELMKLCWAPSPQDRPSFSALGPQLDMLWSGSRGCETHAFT
pIC50: −log10 of the molar value.
recorded_metric: pIC50

Worked cases, pIC50 given:
[[record]]
structure_as_smiles = "CC(=O)N1CCN(c2ccc(Nc3cc(NC(C)C)c(C(N)=O)cn3)cc2)CC1"
recorded_metric = "pIC50"
experimental_value = "6.00 to 7.00"

[[record]]
structure_as_smiles = "COc1ccc(Nc2cc(NCc3ccccc3)c(C(N)=O)cn2)cc1"
recorded_metric = "pIC50"
experimental_value = "7.00 to 8.00"


Prompt: Form: Entry = CN(C)C(=O)COc1ccc(Nc2cc(NC3(c4ccccc4)CC3)c(C(N)=O)cn2)cc1 | System = JAK3 (Homo sapiens, UniProt P52333) | pIC50 = ____
Completion: 7.00 to 8.00

###

Quick list: inhibition at 1 µM per entry.
tested on: JAK1/3 signaling to STAT6 in Ramos B cells; experiment: IL4 stimulation of JAK1/3 signaling to STAT6 in Ramos B cells (pSTAT6 Y641, FACS); assay type: cell-based; conditions: Homo sapiens, 1.0 uM compound, read-out: IL-4/STAT6 in Ramos Percent Inhibition at 1.0 uM
Response body: numeric value in %, unit text excluded.

Study these solved cases before continuing.
[[record]]
structure_as_smiles = "NC(=O)c1cnc(Nc2ccc(OCCN3CCCCC3)cc2)cc1NCc1ccccc1"
value_units = "%"
experimental_value = 48

[[record]]
structure_as_smiles = "NC(=O)c1cnc(Nc2cccc(OCC(=O)N3CCOCC3)c2)cc1NCc1ccccc1"
value_units = "%"
experimental_value = 36

[[record]]
structure_as_smiles = "NC(=O)c1cnc(Nc2ccc(C3CCNCC3)cc2)cc1NCc1cccc(F)c1"
value_units = "%"
experimental_value = 45

[[record]]
structure_as_smiles = "COc1ccc(Nc2cc(NCc3cccc(F)c3)c(C(N)=O)cn2)cc1"
value_units = "%"
experimental_value = 16


Prompt: Would you kindly share the measured inhibition at 1 µM for NC(=O)c1cnc(Nc2cccc(OCCN3CCCC3)c2)cc1NCc1cccnc1 ?
Completion: 40

###

Each entry below carries its recorded IC50.
biological target: JAK1 (Homo sapiens, UniProt P23458); construct: 5 μl of catalytic domain recombinant Kinase enzyme+Tyr peptide substrate (Invitrogen, CA); test: Z'-LYTE kinase assay JAK1
Sequence (P23458 875-1153 limits assumed): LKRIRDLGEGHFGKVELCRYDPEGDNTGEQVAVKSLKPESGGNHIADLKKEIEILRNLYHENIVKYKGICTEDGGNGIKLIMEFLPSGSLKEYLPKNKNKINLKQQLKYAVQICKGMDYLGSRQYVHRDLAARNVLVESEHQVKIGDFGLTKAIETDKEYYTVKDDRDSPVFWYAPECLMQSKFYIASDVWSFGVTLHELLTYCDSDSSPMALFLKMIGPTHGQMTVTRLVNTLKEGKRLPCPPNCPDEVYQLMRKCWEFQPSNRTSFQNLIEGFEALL

Some solved cases for reference:
[[record]]
structure_as_smiles = "CC(=O)N1CCN(c2ccc(Nc3cc(NC4CCCC4)c(C(N)=O)cn3)cc2)CC1"
assay_system = "JAK1 (Homo sapiens, UniProt P23458)"
recorded_metric = "IC50"
experimental_value = "100 to 1000 nM"

[[record]]
structure_as_smiles = "Cc1cc(Nc2cc(NCc3ccccc3)c(C(N)=O)cn2)ccc1C(=O)N(C)CCO"
assay_system = "JAK1 (Homo sapiens, UniProt P23458)"
recorded_metric = "IC50"
experimental_value = "100 to 1000 nM"

[[record]]
structure_as_smiles = "CC(=O)N1CCN(c2ccc(Nc3cc(NC4(c5ccccc5F)CC4)c(C(N)=O)cn3)cc2)CC1"
assay_system = "JAK1 (Homo sapiens, UniProt P23458)"
recorded_metric = "IC50"
experimental_value = "100 to 1000 nM"


Prompt: Missing value: IC50, JAK1 (Homo sapiens, UniProt P23458), entry CCC(=O)N1CCC(c2ccc(Nc3cc(NCc4cccc(-c5cccnc5)c4)c(C(N)=O)cn3)cc2)CC1 . Fill in?
Completion: > 1000 nM

Prompt: What is its IC50 for JAK1 (Homo sapiens, UniProt P23458)? Entry: COCCN(C)C(=O)c1ccc(Nc2cc(NCc3ccccc3)c(C(N)=O)cn2)cc1C
Completion: 100 to 1000 nM

Prompt: Item: NC(=O)c1cnc(Nc2ccc3cnccc3c2)cc1NCc1ccccc1 Test system: JAK1 (Homo sapiens, UniProt P23458) Read-out: IC50 Value: ?
Completion: > 1000 nM

###

molecular target: JAK3 (Homo sapiens, UniProt P52333); construct: 5 μl of catalytic domain recombinant Kinase enzyme+Tyr peptide substrate (Invitrogen, CA); experiment: Z'-LYTE kinase assay JAK3
recorded_metric: IC50

[[record]]
structure_as_smiles = "CC(=O)N1CCC[C@H](CNc2cc(Nc3ccc(F)c(C(=O)N4CCC4)c3)ncc2C(N)=O)C1"
experimental_value = "100 to 1000 nM"

[[record]]
structure_as_smiles = "NC(=O)c1cnc(Nc2ccc(C(=O)N3CCOCC3)cc2)cc1NCC1CCCC1"
experimental_value = "10 to 100 nM"

[[record]]
structure_as_smiles = "CC(=O)N1CCC[C@H](CNc2cc(Nc3ccc(C(=O)N(C)C)c(C(F)(F)F)c3)ncc2C(N)=O)C1"
experimental_value = "100 to 1000 nM"

[[record]]
structure_as_smiles = "COc1ccc(Nc2cc(NCc3ccccc3)c(C(N)=O)cn2)cc1Cl"
experimental_value = "10 to 100 nM"

[[record]]
structure_as_smiles = "CCC(=O)N1CCC(c2ccc(Nc3cc(NCc4cccc(F)c4)c(C(N)=O)cn3)cc2)CC1"
experimental_value = "1 to 10 nM"


Prompt: # get_value(readout='IC50', item= N#CCCc1ccc(Nc2cc(NCc3ccccc3)c(C(N)=O)cn2)cc1 )
Completion: 1 to 10 nM

Prompt: What value of IC50 has been reported for the following compound? CC(=O)N1CCN(c2ccc(Nc3cc(NCc4cccc(F)c4F)c(C(N)=O)cn3)cc2)CC1
Completion: 1 to 10 nM

Prompt: Can you share its IC50? I mean this compound: CS(=O)(=O)N1CCC(CNc2cc(Nc3ccc(C4CCOCC4)cc3)ncc2C(N)=O)CC1
Completion: 100 to 1000 nM

Prompt: Requested read-out: IC50. Entry: Cc1cc(Nc2cc(NCc3ccccc3)c(C(N)=O)cn2)ccc1C(=O)N1CC=CC1
Completion: 1 to 10 nM

Prompt: # get_value(readout='IC50', item= CCC(=O)N1CCC(c2ccc(Nc3cc(NCc4cccc(-c5cccnc5)c4)c(C(N)=O)cn3)cc2)CC1 )
Completion: 1 to 10 nM

Prompt: // lookup IC50 for COC[C@@H](Nc1cc(Nc2cccc(N3CCOCC3)c2)ncc1C(N)=O)c1ccccc1
Completion: 10 to 100 nM

Prompt: Bench note: what IC50 did CC(C)[C@H](C)Nc1cc(Nc2ccc(C3CCOCC3)cc2)ncc1C(N)=O show?
Completion: 10 to 100 nM

Prompt: For the compound CN(C(=O)C1CC1)c1ccc(Nc2cc(NCc3cncc(F)c3)c(C(N)=O)cn2)cc1 , what IC50 is on record?
Completion: 10 to 100 nM

Prompt: What value of measured IC50 is listed for NC(=O)c1cnc(Nc2cccc(N3CCCCC3)c2)cc1NCc1cccc(F)c1 ?
Completion: 10 to 100 nM

Prompt: Given the entry NC(=O)c1cc(F)c(Nc2cccc(-n3nccn3)c2)nc1NCc1ccccc1 , report its measured IC50.
Completion: > 1000 nM

###

In this section we review reported IC50 values for a set of molecules.
biological target: JAK2 (Homo sapiens); construct: 5 μl of catalytic domain recombinant Kinase enzyme+Tyr peptide substrate (Invitrogen, CA); assay: Z'-LYTE kinase assay JAK2
Sequence (O60674 849-1124 limits assumed): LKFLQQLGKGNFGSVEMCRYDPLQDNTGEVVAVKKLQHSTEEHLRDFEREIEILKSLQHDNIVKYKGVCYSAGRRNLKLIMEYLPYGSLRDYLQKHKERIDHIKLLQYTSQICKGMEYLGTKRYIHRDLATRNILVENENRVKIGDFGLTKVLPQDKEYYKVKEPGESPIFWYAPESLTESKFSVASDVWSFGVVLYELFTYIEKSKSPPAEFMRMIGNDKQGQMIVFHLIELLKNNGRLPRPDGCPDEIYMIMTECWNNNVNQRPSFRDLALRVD

Prompt: Query (molecule): NC(=O)c1cnc(Nc2ccc(C3CCOCC3)cc2)cc1NC1CCOCC1 ; field requested: IC50
Completion: > 1 µM

Prompt: Record request: IC50 value, item NC(=O)c1cnc(Nc2ccc(-n3cccn3)cc2)cc1NCc1ccccc1
Completion: > 1 µM

Prompt: Recorded IC50 of NC(=O)c1cnc(Nc2cccc(F)c2)cc1NCc1cncc(F)c1 , please.
Completion: 0.1 to 1 µM

Prompt: So what's the measured IC50 for this one? NC(=O)c1cnc(Nc2cccc(C3CCOCC3)c2)cc1NC1CCOCC1
Completion: 0.1 to 1 µM

Prompt: Entry CC(=O)N1CCN(c2ccc(Nc3cc(NCC4CC4)c(C(N)=O)cn3)cc2)CC1 : reported IC50 = ?
Completion: 0.1 to 1 µM

Prompt: Can you share its IC50? I mean this molecule: CCC(=O)N1CCC(c2ccc(Nc3cc(NCc4cncc(F)c4)c(C(N)=O)cn3)cc2)CC1
Completion: 0.01 to 0.1 µM

Prompt: Quick one: IC50 for COc1ccc(Nc2cc(NCc3cncc(F)c3)c(C(N)=O)cn2)cc1 ?
Completion: 0.1 to 1 µM

###

target: JAK1 (Homo sapiens); construct: 5 μl of catalytic domain recombinant Kinase enzyme+Tyr peptide substrate (Invitrogen, CA); assay: Z'-LYTE kinase assay JAK1
pIC50: −log10 of the molar value.
Recorded pIC50, one value per entry.

Examples from the recorded data:
[[record]]
compound = "NC(=O)c1cnc(Nc2ccc(N3CCOCC3)cc2)cc1NCc1cccc(F)c1 [Example 67]"
assay_system = "JAK1 (Homo sapiens)"
recorded_metric = "pIC50"
experimental_value = "6.00 to 7.00"

[[record]]
compound = "CC(=O)N1CCN(c2ccc(Nc3cc(N[C@H]4CCc5ccccc54)c(C(N)=O)cn3)cc2)CC1 [Example 255]"
assay_system = "JAK1 (Homo sapiens)"
recorded_metric = "pIC50"
experimental_value = "< 6.00"

[[record]]
compound = "CCC(=O)N1CCC(c2ccc(Nc3cc(NCc4ccccc4)c(C(N)=O)cn3)cc2)CC1 [Example 198]"
assay_system = "JAK1 (Homo sapiens)"
recorded_metric = "pIC50"
experimental_value = "< 6.00"

[[record]]
compound = "CC(=O)N(C)c1ccc(Nc2cc(NCc3cncc(F)c3)c(C(N)=O)cn2)cc1 [Example 483]"
assay_system = "JAK1 (Homo sapiens)"
recorded_metric = "pIC50"
experimental_value = "< 6.00"

[[record]]
compound = "COC(=O)N1CC(c2ccc(Nc3cc(NCc4ccccc4)c(C(N)=O)cn3)cc2)C1 [Example 327]"
assay_system = "JAK1 (Homo sapiens)"
recorded_metric = "pIC50"
experimental_value = "< 6.00"


API: the following record is the query input.
Prompt: I have this compound here, N#CCN1CCC(c2ccc(Nc3cc(NCc4cccc(F)c4F)c(C(N)=O)cn3)cc2)CC1 [Example 215] , and I need its recorded pIC50.
Completion: < 6.00
